target-or-system: human RXFP1 (Homo sapiens, UniProt Q9HBX9)
Sequence (Q9HBX9 1-757): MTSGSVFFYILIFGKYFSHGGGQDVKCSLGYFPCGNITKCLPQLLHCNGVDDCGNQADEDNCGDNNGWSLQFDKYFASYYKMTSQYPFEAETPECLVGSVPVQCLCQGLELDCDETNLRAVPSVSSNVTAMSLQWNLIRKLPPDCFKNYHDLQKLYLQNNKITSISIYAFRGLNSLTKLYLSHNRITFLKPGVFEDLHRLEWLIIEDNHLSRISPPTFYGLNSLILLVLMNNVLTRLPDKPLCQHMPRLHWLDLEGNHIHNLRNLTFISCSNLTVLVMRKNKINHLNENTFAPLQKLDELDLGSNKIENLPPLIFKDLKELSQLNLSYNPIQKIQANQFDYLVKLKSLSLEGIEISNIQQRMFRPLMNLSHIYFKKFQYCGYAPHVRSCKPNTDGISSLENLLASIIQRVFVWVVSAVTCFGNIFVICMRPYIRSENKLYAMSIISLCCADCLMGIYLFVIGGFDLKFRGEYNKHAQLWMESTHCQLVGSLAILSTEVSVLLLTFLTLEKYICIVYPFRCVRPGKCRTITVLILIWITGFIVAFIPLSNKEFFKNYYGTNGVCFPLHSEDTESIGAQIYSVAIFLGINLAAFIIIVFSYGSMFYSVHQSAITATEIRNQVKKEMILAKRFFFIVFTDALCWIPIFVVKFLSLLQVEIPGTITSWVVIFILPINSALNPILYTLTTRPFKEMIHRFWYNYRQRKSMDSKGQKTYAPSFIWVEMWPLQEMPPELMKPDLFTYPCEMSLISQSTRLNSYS
experiment-summary: RXFP1 Hu cAMP (Test A)
Type: cell-based
Set-up: expressed in transfected cells; host or cells: Jump-In T-REx CHO-K1 cells (ThermoFisher), induced with 10 ng/ml doxycycline for 24 h
condition-label: RXFP1 Hu cAMP
Listed here are molecules together with their documented Test A Sinf.

molecule: COc1cc(F)c(-c2ccc(OCC(=O)O)nc2)cc1C(=O)N[C@@H]1[C@H]2CC[C@H](C2)[C@@H]1C(=O)Nc1cccc(S(=O)(=O)C(F)(F)F)c1 [Example 241]
target-or-system: human RXFP1 (Homo sapiens, UniProt Q9HBX9)
Test A Sinf (%): 99

molecule: COc1cc(F)c(-c2ccc([C@@H]3C[C@H]3C(=O)O)nc2)cc1C(=O)N[C@@H]1[C@H]2CC[C@H](C2)[C@@H]1C(=O)Nc1cccc(S(=O)(=O)C(F)(F)F)c1 (single isomer, unassigned) [Example 261]
target-or-system: human RXFP1 (Homo sapiens, UniProt Q9HBX9)
Test A Sinf (%): 107

molecule: COc1cc(F)c(O[C@H]2CC[C@@H](C(=O)O)CC2)cc1C(=O)N[C@@H]1[C@@H]2CC[C@@H](C2)[C@@H]1C(=O)Nc1cccc(S(F)(F)(F)(F)F)c1 [Example 509]
target-or-system: human RXFP1 (Homo sapiens, UniProt Q9HBX9)
Test A Sinf (%): 125

molecule: COc1cc(F)c(O[C@H]2CC[C@@](C)(C(=O)O)CC2)cc1C(=O)NC1C2CCC(C2)C1C(=O)Nc1ccc(F)c(S(F)(F)(F)(F)F)c1 (single isomer, unassigned) [Example 520]
target-or-system: human RXFP1 (Homo sapiens, UniProt Q9HBX9)
Test A Sinf (%): 108

molecule: COc1cc(F)c(O[C@H]2CC[C@@](CO)(C(=O)O)CC2)cc1C(=O)N[C@@H]1C[C@@H](OC)C[C@@H]1C(=O)NCC(C)(C)C (racemic) [Example 338]
target-or-system: human RXFP1 (Homo sapiens, UniProt Q9HBX9)
Test A Sinf (%): 104
